- Assay protocol: inhibitors of CD8+ T cell-vesicle binding, pilot screen, LFA-1/ICAM-1 modulator project, MLPCN validation set, flow cytometry (AID 2523)
- Condition notes: 2C mouse CD8+ T cells, at 7 µM, stronger effect = lower value; measured here: CD8+/vesicle+ event percentage
// assign t if double positive events falls strictly below 60%, else f (ties count as f)

# strict comparison: is reported double positive events < 60%? input = COc1ccc2cc(-c3nc4ccccc4n3C)c(=O)oc2c1
f

# strict comparison: is reported double positive events < 60%? input = Cc1csc(CCc2nc(C)cs2)n1
t

# strict comparison: is reported double positive events < 60%? input = CCc1c(C)c2ccc(OCC(=O)OC(C)C)c(C)c2oc1=O
t

# strict comparison: is reported double positive events < 60%? input = CC(C)Oc1ccc(C(CC(=O)O)c2ccc(F)cc2)cc1 (centres undefined)
f

# strict comparison: is reported double positive events < 60%? input = Cc1ccccc1NC(=O)C1c2ccccc2Oc2ccccc21
f

# strict comparison: is reported double positive events < 60%? input = COc1ccc(C2N3CC4(C)CN2CC(C)(C3)C4)cc1OC (centres undefined)
t

# strict comparison: is reported double positive events < 60%? input = COc1ccc(C2CNC(=O)C2)cc1OC1CCCC1 (centres undefined)
t

# strict comparison: is reported double positive events < 60%? input = COC(=O)c1cc(OC)c(OC)c(OC)c1[N+](=O)[O-]
t

# strict comparison: is reported double positive events < 60%? input = O=C1NCC2=C1C(c1ccccc1)Nc1ccccc1N2 (centres undefined)
f

# strict comparison: is reported double positive events < 60%? input = CC(=O)O[C@]1(C(C)=O)CC[C@H]2[C@@H]3C=C(C)C4=CC(=O)CC[C@]4(C)[C@H]3CC[C@@]21C
f

# strict comparison: is reported double positive events < 60%? input = CCCCC[C@H](O)/C=C/[C@@H]1[C@@H](CCCCCCC(=O)O)[C@@H](O)C[C@H]1O
t

# strict comparison: is reported double positive events < 60%? input = Cn1c2c(c(=O)[nH]c1=O)C(c1ccc(O)cc1)C1=C(N2)c2ccccc2C1=O (centres undefined)
f

# strict comparison: is reported double positive events < 60%? input = C#CCN(C)Cc1ccccc1
f

# strict comparison: is reported double positive events < 60%? input = CCN1CCN(C(=O)N[C@@H](C(=O)N[C@@H]2C(=O)N3[C@@H]2SC(C)(C)[C@@H]3C(=O)O)c2ccccc2)C(=O)C1=O
f

# strict comparison: is reported double positive events < 60%? input = CC(C)[N+]1(C)[C@@H]2CC[C@H]1CC(OC(=O)C(CO)c1ccccc1)C2 (some centres undefined)
t

# strict comparison: is reported double positive events < 60%? input = Fc1cccc(Cc2noc(CN3CCN(c4cnccn4)CC3)n2)c1
t

# strict comparison: is reported double positive events < 60%? input = COc1ccc(-c2[nH]ncc2C=O)cc1OC
t

# strict comparison: is reported double positive events < 60%? input = O=C(CCCCCCCC(=O)c1ccccc1)c1ccccc1
f

# strict comparison: is reported double positive events < 60%? input = COc1cc(OC)c(C(=O)CCCN2CCCC2)c(OC)c1
f

# strict comparison: is reported double positive events < 60%? input = C[C@]12C=CC(=O)C=C1CCC1C3CC[C@](O)(C(=O)CO)[C@@]3(C)CC3OC312 (some centres undefined)
f

# strict comparison: is reported double positive events < 60%? input = O=C(CCCN1CCC(O)(c2ccc(Cl)cc2)CC1)c1ccc(F)cc1
f

# strict comparison: is reported double positive events < 60%? input = CC/C(=C1/C(=O)CC(C)(C)C(C(=O)OC)C1=O)N1CCCC1 (centres undefined)
f

# strict comparison: is reported double positive events < 60%? input = CC#C[C@]1(O)CC[C@H]2[C@@H]3CCC4=CC(=O)CCC4=C3[C@@H](c3ccc(N(C)C)cc3)C[C@@]21C
t

# strict comparison: is reported double positive events < 60%? input = COc1ccc(CCN=C(N)C(C)c2ccccc2)cc1OC (centres undefined)
f

# strict comparison: is reported double positive events < 60%? input = CCN(CC)CCNc1ccc(CO)c2sc3ccccc3c(=O)c12
t

# strict comparison: is reported double positive events < 60%? input = CC(=O)Oc1ccc2occ(/C=N/c3cc(=O)[nH]c(=S)[nH]3)c(=O)c2c1
f

# strict comparison: is reported double positive events < 60%? input = CCCC(=O)O[C@]1(C(=O)CO)CC[C@H]2[C@@H]3CCC4=CC(=O)CC[C@]4(C)[C@H]3[C@@H](O)C[C@@]21C
t

# strict comparison: is reported double positive events < 60%? input = COc1ccc(NC(=O)C2C(=O)N(CCO)C3(C)CC2c2ccccc2O3)cc1 (centres undefined)
f

# strict comparison: is reported double positive events < 60%? input = CCOc1ccc(CCn2c(-c3ccco3)nc3ccccc3c2=O)cc1OCC
f

# strict comparison: is reported double positive events < 60%? input = O=C(CCCCC(=O)NC1CCCC1)NC1CCCC1
t

# strict comparison: is reported double positive events < 60%? input = Cc1ccc2nc3c(cc(C(=O)NCC4CCCO4)c(=N)n3CCCOC(C)C)c(=O)n2c1 (centres undefined)
f
